Taken from the supplement of paper PMC9663587.

System: BT549
procedure.text: GRmax, 72 h; higher = less effect;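 also: breast cell lines in 384-well plates, nine doses across a 10^4 range, Dye Drop imaging of viable cells vs DMSO and time-zero plates, GR 0 means no net growth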
measured.metric: GRmax, 72 h
# number then unit; no other words

Previously resolved entries follow.
{"compound": "CC(=O)c1c(C)c2cnc(Nc3ccc(N4CCN(CCOCCOCCOCCNC(=O)COc5cccc6c5C(=O)N(C5CCC(=O)NC5=O)C6=O)CC4)cn3)nc2n(C2CCCC2)c1=O (stereo unspecified) [BSJ-03-123] (max 10 µM)", "measured.metric": "GRmax, 72 h", "endpoint.result": "0.0183 GR"}
{"compound": "Nc1cc(C(F)(F)F)c(-c2cc(N3CCOCC3)nc(N3CCOCC3)n2)cn1 [Buparlisib/NVP-BKM120] (max 10 µM)", "measured.metric": "GRmax, 72 h", "endpoint.result": "-0.272 GR"}
{"compound": "CN(C)C(=O)c1cc2cnc(Nc3ccc(N4CCNCC4)cn3)nc2n1C1CCCC1 [LEE011/Ribociclib] (max 10 µM)", "measured.metric": "GRmax, 72 h", "endpoint.result": "0.97 GR"}
{"compound": "COc1cc(N2CCN(C)CC2)ccc1Nc1ncc2c(n1)N(C)c1ccccc1C(=O)N2CC(F)(F)F", "measured.metric": "GRmax, 72 h", "endpoint.result": "0.839 GR"}

Problem: Supply recorded GRmax, 72 h for C[C@@H]1COCCN1c1cc(C2([S@](C)(=N)=O)CC2)nc(-c2cc[nH]c3nccc2-3)n1 [AZD6738] (max 10 µM) here.
Solution: -0.099 GR

Problem: Supply recorded GRmax, 72 h for COc1ccc2c(c1)[C@]1(C[C@H]1c1ccc3c(/C=C/c4ccc(CN5C[C@@H](C)O[C@@H](C)C5)cc4)n[nH]c3c1)C(=O)N2 here.
Solution: 0.0324 GR
